Data credit: patent US10562947B2

- targetOrSystem: BrSK1(h) (Homo sapiens, UniProt Q8TDC3)
- Sequence (Q8TDC3 1-778): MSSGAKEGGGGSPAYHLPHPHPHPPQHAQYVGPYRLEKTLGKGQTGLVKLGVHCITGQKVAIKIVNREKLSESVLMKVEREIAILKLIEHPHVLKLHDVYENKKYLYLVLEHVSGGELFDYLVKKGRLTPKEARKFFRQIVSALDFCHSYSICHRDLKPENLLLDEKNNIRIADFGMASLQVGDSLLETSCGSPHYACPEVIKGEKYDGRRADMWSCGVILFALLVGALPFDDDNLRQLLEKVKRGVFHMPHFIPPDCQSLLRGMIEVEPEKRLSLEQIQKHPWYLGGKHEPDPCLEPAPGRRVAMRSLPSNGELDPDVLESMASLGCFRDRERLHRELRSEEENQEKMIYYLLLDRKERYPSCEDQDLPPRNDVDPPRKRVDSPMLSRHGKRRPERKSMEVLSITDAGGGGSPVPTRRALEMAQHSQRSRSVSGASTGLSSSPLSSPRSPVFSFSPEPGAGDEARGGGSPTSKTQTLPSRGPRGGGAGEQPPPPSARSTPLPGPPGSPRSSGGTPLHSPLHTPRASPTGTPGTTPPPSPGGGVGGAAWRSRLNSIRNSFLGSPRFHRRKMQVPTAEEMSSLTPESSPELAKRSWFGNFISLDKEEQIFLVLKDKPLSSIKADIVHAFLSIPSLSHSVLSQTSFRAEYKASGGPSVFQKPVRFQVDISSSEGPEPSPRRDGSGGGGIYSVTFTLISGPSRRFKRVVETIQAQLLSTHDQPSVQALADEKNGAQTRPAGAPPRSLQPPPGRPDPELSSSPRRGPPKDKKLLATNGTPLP
- test: Kinase Profiling Assay
- Assay type: biochemical
- assayConditions: 100 μM peptide
recordedEndpoint: BrSK1(h) % activity (%)

- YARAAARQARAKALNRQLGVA (Mammalian) [MMI-0200]: 93
- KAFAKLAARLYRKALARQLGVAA [MMI-0400]: 76
- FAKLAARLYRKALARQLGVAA [MMI-0300]: 67
- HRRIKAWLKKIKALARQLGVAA (Mammalian) [MMI-0500]: 72

====

- targetOrSystem: TrkB(h) (Homo sapiens)
- test: Kinase Profiling Assay
- Type: biochemical
- assayConditions: 100 μM peptide
recordedEndpoint: TrkB(h) % activity (%)

* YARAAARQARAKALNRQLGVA (Mammalian) [MMI-0200] | 7
* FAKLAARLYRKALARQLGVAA [MMI-0300] | 5
* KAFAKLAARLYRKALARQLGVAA [MMI-0400] | 8
* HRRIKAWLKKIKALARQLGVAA (Mammalian) [MMI-0500] | 12

====

Listed below: LKB1(h) % activity values for each entry.
- targetOrSystem: LKB1(h) (Homo sapiens, UniProt Q15831)
- Sequence (Q15831 1-433): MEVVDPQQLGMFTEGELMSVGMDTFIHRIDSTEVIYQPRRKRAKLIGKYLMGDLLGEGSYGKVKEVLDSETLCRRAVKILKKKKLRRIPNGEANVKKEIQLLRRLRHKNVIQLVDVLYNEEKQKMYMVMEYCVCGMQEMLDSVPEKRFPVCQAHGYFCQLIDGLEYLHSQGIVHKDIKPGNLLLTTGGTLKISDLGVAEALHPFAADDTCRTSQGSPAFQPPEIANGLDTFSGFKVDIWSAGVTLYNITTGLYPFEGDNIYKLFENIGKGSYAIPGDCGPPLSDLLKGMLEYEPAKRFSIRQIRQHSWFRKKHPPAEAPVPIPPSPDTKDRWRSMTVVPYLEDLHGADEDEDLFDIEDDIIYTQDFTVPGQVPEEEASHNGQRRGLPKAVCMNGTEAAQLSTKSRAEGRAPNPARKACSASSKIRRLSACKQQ
- Sequence (Q7RTN6 1-431 partner): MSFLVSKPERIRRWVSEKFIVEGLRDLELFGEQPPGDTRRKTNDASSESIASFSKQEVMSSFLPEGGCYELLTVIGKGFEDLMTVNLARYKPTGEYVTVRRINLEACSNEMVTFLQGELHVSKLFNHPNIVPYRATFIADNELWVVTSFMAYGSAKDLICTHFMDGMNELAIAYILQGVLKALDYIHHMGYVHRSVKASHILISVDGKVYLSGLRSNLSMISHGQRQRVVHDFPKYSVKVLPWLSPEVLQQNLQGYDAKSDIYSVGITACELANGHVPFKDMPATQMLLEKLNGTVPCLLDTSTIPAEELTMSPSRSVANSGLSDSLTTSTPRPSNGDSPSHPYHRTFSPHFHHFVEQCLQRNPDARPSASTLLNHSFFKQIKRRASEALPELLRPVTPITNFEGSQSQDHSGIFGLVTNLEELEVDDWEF
- Sequence (Q9Y376 1-341 partner): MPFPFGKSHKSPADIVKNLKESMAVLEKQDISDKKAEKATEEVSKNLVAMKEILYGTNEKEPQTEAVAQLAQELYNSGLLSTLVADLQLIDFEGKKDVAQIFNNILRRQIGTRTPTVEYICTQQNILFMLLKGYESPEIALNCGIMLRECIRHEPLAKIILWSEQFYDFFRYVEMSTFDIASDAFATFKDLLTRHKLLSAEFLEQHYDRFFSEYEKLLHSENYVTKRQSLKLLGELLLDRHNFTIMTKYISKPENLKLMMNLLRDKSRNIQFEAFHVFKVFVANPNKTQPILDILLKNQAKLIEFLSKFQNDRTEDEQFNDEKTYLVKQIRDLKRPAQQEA
- test: Kinase Profiling Assay
- Format: biochemical
- assayConditions: 100 μM peptide
recordedEndpoint: LKB1(h) % activity (%)

* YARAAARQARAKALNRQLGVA (Mammalian) [MMI-0200] | 99
* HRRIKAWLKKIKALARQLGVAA (Mammalian) [MMI-0500] | 51
* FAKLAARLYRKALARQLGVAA [MMI-0300] | 101
* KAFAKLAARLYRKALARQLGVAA [MMI-0400] | 89

====

Listed below: MAPKAP-K3(h) % activity values for each entry.
- targetOrSystem: MAPKAP-K3(h) (Homo sapiens)
- Sequence (Q16644 whole entry): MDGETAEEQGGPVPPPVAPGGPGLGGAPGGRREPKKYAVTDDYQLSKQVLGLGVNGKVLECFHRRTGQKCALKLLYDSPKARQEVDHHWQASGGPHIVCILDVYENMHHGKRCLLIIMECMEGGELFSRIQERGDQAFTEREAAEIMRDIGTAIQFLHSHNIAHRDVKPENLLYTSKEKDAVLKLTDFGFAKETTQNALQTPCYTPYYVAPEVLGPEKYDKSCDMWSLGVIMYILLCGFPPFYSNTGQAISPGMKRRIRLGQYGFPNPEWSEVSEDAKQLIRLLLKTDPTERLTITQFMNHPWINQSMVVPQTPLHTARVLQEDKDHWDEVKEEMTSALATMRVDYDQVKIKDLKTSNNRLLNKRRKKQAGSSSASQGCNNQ
- test: Kinase Profiling Assay
- Format: biochemical
- assayConditions: 100 μM peptide
recordedEndpoint: MAPKAP-K3(h) % activity (%)

* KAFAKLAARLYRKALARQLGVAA [MMI-0400] | 7
* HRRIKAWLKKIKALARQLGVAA (Mammalian) [MMI-0500] | 9
* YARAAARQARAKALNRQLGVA (Mammalian) [MMI-0200] | 39
* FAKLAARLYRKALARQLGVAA [MMI-0300] | 3

====

- targetOrSystem: Rsk2(h) (Homo sapiens)
- Construct: purchased Millipore (IC50 Profiler Express service)
- Sequence (P51812 whole entry): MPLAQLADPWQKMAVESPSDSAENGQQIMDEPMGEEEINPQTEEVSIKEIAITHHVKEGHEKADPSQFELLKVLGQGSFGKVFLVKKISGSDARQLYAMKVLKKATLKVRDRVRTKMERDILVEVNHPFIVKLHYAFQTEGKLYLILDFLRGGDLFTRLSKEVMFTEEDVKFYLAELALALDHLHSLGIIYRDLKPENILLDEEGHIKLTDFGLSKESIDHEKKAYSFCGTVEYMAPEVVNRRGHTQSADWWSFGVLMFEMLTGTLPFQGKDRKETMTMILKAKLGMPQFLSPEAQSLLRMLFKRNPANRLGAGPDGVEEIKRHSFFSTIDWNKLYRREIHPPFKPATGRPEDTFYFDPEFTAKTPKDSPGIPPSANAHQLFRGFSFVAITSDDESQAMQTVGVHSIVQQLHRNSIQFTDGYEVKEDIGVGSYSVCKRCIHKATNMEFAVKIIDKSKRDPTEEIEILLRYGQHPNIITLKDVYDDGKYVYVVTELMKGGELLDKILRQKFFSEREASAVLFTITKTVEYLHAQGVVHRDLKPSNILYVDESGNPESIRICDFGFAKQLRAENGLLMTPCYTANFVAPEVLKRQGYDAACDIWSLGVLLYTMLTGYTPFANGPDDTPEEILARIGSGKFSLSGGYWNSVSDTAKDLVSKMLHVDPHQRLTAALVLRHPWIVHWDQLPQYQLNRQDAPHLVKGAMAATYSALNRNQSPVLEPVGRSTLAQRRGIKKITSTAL
- test: Kinase Profiling Assay
- Assay type: biochemical
- assayConditions: 100 μM peptide
recordedEndpoint: Rsk2(h) % activity (%)

* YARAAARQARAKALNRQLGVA (Mammalian) [MMI-0200] | 101
* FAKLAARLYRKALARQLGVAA [MMI-0300] | 51
* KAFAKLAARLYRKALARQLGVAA [MMI-0400] | 38
* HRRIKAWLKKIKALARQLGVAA (Mammalian) [MMI-0500] | 14

====

- targetOrSystem: MST3(h) (Homo sapiens, UniProt Q9Y6E0)
- Sequence (Q9Y6E0 whole entry): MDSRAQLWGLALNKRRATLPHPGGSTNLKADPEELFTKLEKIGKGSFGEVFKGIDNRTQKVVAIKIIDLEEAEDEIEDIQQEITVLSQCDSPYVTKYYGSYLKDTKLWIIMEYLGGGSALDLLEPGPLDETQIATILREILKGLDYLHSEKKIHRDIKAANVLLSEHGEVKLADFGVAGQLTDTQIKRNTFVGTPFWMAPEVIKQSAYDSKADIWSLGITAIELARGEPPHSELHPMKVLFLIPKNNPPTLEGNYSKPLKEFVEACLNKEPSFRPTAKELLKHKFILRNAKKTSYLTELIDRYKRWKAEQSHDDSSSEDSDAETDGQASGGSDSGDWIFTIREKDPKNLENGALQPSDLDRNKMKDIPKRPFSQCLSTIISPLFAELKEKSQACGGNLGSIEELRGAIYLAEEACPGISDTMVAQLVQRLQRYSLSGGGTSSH
- test: Kinase Profiling Assay
- Assay type: biochemical
- assayConditions: 100 μM peptide
Listed below: MST3(h) % activity values for each entry.
recordedEndpoint: MST3(h) % activity (%)

- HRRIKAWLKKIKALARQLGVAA (Mammalian) [MMI-0500]: 4
- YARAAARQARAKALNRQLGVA (Mammalian) [MMI-0200]: 95
- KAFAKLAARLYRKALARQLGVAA [MMI-0400]: 36
- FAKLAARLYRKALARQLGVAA [MMI-0300]: 45

====

- targetOrSystem: CHK2(R145W)(h) (Homo sapiens, UniProt O96017, R145W)
- Sequence (O96017 whole entry R145W): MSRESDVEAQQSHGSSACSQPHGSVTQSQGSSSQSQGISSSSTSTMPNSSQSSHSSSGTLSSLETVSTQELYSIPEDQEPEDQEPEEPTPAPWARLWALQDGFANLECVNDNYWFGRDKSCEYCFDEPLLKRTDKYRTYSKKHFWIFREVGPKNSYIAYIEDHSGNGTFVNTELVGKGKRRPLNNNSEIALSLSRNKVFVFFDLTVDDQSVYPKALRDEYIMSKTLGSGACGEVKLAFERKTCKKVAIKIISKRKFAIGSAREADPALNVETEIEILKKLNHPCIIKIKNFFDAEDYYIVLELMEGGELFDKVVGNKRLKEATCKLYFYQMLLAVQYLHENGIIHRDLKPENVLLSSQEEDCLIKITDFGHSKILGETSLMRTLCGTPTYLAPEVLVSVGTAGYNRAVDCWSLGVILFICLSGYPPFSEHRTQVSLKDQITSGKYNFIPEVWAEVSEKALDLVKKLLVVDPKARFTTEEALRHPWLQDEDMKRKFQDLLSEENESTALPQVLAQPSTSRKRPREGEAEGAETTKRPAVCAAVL
- test: Kinase Profiling Assay
- Format: biochemical
- assayConditions: 100 μM peptide
- Description: Every kinase activity measurement was conducted in duplicate. In addition to determining the IC50 of the compound, the specificity of MK2 inhibitory peptides was assessed by examining activities of all 266 human kinases available for testing in the Millipore kinase profiling service (Table 1).
recordedEndpoint: CHK2(R145W)(h) % activity

• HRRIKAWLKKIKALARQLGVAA (Mammalian) [MMI-0500] = 3%
• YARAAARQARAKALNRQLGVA (Mammalian) [MMI-0200] = 81%
• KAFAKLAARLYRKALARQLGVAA [MMI-0400] = 31%
• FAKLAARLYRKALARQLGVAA [MMI-0300] = 33%

====

- targetOrSystem: MKK6(h) (Homo sapiens, UniProt P52564)
- Sequence (P52564 1-334): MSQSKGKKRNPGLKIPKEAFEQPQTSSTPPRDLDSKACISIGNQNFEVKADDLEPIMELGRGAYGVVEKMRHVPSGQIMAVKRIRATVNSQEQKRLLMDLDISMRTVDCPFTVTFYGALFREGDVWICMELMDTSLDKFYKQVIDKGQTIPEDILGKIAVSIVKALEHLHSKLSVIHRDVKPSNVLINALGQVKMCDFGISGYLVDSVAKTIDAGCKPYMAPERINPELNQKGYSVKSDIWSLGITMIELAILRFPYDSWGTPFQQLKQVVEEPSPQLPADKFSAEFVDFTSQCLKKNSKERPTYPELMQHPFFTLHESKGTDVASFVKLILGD
- test: Kinase Profiling Assay
- Format: biochemical
- assayConditions: 100 μM peptide
Listed below: MKK6(h) % activity values for each entry.
recordedEndpoint: MKK6(h) % activity (%)

* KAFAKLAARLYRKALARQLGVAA [MMI-0400] | 44
* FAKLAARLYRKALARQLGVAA [MMI-0300] | 48
* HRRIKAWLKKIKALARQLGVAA (Mammalian) [MMI-0500] | 18
* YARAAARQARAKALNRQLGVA (Mammalian) [MMI-0200] | 98
